- assayedSystem: CYP2B6 (Homo sapiens)
- Sequence (P20813 whole entry): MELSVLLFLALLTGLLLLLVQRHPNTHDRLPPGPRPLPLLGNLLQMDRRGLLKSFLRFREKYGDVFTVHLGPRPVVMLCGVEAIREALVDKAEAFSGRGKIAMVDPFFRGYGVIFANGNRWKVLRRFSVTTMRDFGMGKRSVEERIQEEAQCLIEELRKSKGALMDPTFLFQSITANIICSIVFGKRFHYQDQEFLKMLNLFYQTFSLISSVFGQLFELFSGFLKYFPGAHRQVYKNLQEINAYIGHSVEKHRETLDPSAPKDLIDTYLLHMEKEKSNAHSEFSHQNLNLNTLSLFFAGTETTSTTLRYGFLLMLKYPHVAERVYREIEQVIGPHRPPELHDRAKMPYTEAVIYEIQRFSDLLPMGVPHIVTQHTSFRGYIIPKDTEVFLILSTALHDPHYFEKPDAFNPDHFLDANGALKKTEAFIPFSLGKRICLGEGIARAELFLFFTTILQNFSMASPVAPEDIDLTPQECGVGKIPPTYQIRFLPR
- experimentalDetails: CYP2B6 inhibition, 7-ethoxy-4-trifluoromethyl-coumarin fluorescence assay in microsomes
- protocolConditions: CYP2B6 + P450 reductase microsomes, 7-ethoxy-4-trifluoromethyl-coumarin 6 μM, 40 min at 37° C.; read-out: CYP2B6 inhibitor activity IC50
- Protocol: Test compounds that inhibit the activity of CYP2B6 are identified by using the same principle as described in Example 42, first paragraph. A test compound (details see Table 2) was incubated with CYP2B6 in the presence of a cytochrome P450 reductase. […] The samples were analysed spectrofluorometrically which allows to detect the formation of 4-trifluoromethyl-umbelliferone as the enzymatic product at an excitation wavelength of 410 nm and an emission wavelength of 510 nm.
propertyMeasured: IC50 (µM)

Study these solved cases before continuing.
| compound | IC50 [µM] |
| --- | --- |
| CCCCCN(Cc1ccccc1)C(C)=O [Ex. 1, N-benzyl-N-pentylacetamide] | 72 |
| CCCCCN(C(C)=O)c1ccccc1 [Ex. 2, N-pentyl-N-phenylacetamide] | 46 |
| CCCCCN(CC1CC1)C(=O)OC [Ex. 11] | 28 |

[A] CCCCCN(CC1CC1)C(C)=O [Ex. 10, N-(cyclopropylmethyl)-N-pentylacetamide]
[B] CCCCCN(C=O)CC1CC1 [Ex. 36, N-(cyclopropylmethyl)-N-pentylformamide]
Q: Could you point out whether the larger IC50 belongs to A or to B ? I would appreciate it if you answered with the label of your choice.
Result: A
(A: 87 µM, B: 49 µM)
